- System: clinical strains of Acinetobacter baumannii
- Experiment: MIC, microdilution, clinical strains
- Assay type: cell-based
- Set-up: unit: μg/ml
- Condition: Acinetobacter baumannii strain 3, Muller Hinton broth-cation adjusted, 0.02% BSA, 0.2% acetic acid
- Procedure: Minimum inhibition concetrations (MICs) were determined against Escherichia coli (ATCC 25922), Staphylococcus aureus (ATCC 25923), Klebsiella pneumoniae (ATCC 10031) and Pseudomonas aeruginosa (ATCC 27853). […] The susceptibility of these microorganisms to Chain peptides were determined using micro broth dilution assay. […] Concentrations of Chain peptides and reference antibiotics ranged from 0.125 to 128 μg/ml and the MICs were recorded as the lowest concentration with no visual growth of bacteria. […]
Where a SMILES comes first, the peptide text is derived from it. [ ]: non-standard residue; d: D form.
Measured Quantity: Minimum inhibitory concentration
Give bare numbers.

Q. # get_value(readout='Minimum inhibitory concentration', item= CC[C@@H](C)[C@@H](NC(=O)[C@@H](Cc1c[nH]c2ccccc12)NC(=O)[C@H](N)CCCCN)C(=O)N[C@@H](C(=O)N[C@H](Cc1c[nH]c2ccccc12)C(=O)N[C@H](CCCNC(=N)N)C(=O)N[C@H](Cc1c[nH]c2ccccc12)C(=O)N[C@H](CCCNC(=N)N)C(=O)N[C@H](Cc1ccccc1)C(=O)N[C@H](CCCCN)C(=O)N[C@H](CCCNC(=N)N)C(=O)O)C(C)C [Chain201D] (H-[dK][dW][dI][dV][dW][dR][dW][dR][dF][dK][dR]-OH) )
A. 4

----------
Assign Minimum inhibitory concentration to each entry below.
- System: clinical strains of K. pneumoniae
- Experiment: MIC, microdilution, clinical strains
- Type: cell-based
- Condition: Klebsiella pneumoniae strain 1, Muller Hinton broth-cation adjusted, 0.02% BSA, 0.2% acetic acid
Where a SMILES comes first, the peptide text is derived from it. [ ]: non-standard residue; d: D form.

Sample answers from the record:
CC(C)C[C@@H](NC(=O)[C@@H](CCCCN)NC(=O)[C@@H](Cc1c[nH]c2ccccc12)NC(=O)[C@@H](CCCCN)NC(=O)[C@@H](C)NC(=O)[C@@H](Cc1c[nH]cn1)NC(=O)[C@@H](CC(C)C)NC(=O)[C@@H](CCCNC(=N)N)NC(=O)[C@@H](Cc1c[nH]c2ccccc12)NC(=O)[C@H](N)Cc1c[nH]c2ccccc12)C(=O)N[C@H](Cc1c[nH]c2ccccc12)C(=O)O [Chain109D] (H-[dW][dW][dR][dL][dH][dA][dK][dW][dK][dL][dW]-OH) ... 16
CC[C@@H](C)[C@@H](N)C(=O)N[C@H](Cc1c[nH]c2ccccc12)C(=O)N[C@H](CCCCN)C(=O)N[C@H](CCCNC(=N)N)C(=O)N[C@H](Cc1ccccc1)C(=O)N[C@H](CCCNC(=N)N)C(=O)N[C@H](CC(C)C)C(=O)N[C@H](Cc1ccccc1)C(=O)N[C@H](CCCCN)C(=O)N[C@H](CCCCN)C(=O)N[C@H](Cc1c[nH]c2ccccc12)C(=O)O [Chain304D] (H-[dI][dW][dK][dR][dF][dR][dL][dF][dK][dK][dW]-OH) ... >128

The record that follows has no Minimum inhibitory concentration shown yet.
Q. Which measured Minimum inhibitory concentration value corresponds to CC[C@@H](C)[C@@H](NC(=O)[C@@H](Cc1c[nH]c2ccccc12)NC(=O)[C@H](N)CCCCN)C(=O)N[C@@H](C(=O)N[C@H](Cc1c[nH]c2ccccc12)C(=O)N[C@H](CCCNC(=N)N)C(=O)N[C@H](Cc1c[nH]c2ccccc12)C(=O)N[C@H](CCCNC(=N)N)C(=O)N[C@H](Cc1ccccc1)C(=O)N[C@H](CCCCN)C(=O)N[C@H](CCCNC(=N)N)C(=O)O)C(C)C [Chain201D] (H-[dK][dW][dI][dV][dW][dR][dW][dR][dF][dK][dR]-OH) ?
A. 2
